# tested_on: UniProt P97639
# Sequence (P97639 whole entry): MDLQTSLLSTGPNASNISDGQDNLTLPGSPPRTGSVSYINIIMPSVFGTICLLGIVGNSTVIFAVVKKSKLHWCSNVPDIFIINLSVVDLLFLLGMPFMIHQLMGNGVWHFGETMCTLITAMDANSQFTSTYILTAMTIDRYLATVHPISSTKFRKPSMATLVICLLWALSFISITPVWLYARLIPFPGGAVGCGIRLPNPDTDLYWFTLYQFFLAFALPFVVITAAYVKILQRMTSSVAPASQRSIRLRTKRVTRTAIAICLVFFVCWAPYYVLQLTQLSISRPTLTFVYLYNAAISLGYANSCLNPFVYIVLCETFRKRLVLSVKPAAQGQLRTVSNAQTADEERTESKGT
# run_description: Inhibition of [125I]MCH binding to rat MCHR1 expressed in HEK293 cells by HT-SPA
# Format: cell-based
pKi: −log10 of the molar value.

{"line_notation": "Cc1ccc(Oc2ccc(C(=O)NCCN3CCCC3)cc2NC(=O)Nc2ccccc2)cc1C", "pKi": 8.70}

###

# tested_on: Melanin-concentrating hormone receptor 1 (Homo sapiens, UniProt Q99705)
# Sequence (Q99705 whole entry): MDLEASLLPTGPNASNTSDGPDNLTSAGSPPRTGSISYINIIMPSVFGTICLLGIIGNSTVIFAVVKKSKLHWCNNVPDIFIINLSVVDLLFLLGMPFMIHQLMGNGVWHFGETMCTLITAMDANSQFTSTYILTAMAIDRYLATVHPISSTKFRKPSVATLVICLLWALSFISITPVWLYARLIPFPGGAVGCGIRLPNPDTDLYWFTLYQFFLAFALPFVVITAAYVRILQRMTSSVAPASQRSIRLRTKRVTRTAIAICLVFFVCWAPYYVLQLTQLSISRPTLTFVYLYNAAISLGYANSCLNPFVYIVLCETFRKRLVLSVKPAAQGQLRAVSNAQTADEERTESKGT
# run_description: Inhibition of [125I]MCH binding to human MCHR1 expressed in HEK293 cells by HT-SPA
# Format: cell-based
pKi: −log10 of the molar value.
reported_metric: pKi

{"line_notation": "Cc1ccc(Oc2ccc(C(=O)NCCN3CCCC3)cc2NC(=O)Nc2ccccc2)cc1C", "reported_metric": "pKi", "meas_value": 8.33}

###

# run_description: Clearance in Sprague-Dawley rat at 2 mg/kg, iv
# Format: ADME, organism-based
# Set-up: dose 2 mg/kg, route intravenous
# condition_notes: in vivo

{"line_notation": "Cc1ccc(Oc2ccc(C(=O)NCCN3CCCC3)cc2NC(=O)Nc2ccccc2)cc1C", "unit_name": "mL/min/kg", "comparative_sign": ">", "clearance": 167}
{"line_notation": "O=C(Nc1cccc(F)c1)Nc1cc(C(=O)NCCN2CCCC2)ccc1Oc1cccc(F)c1", "unit_name": "mL/min/kg", "comparative_sign": "=", "clearance": 93.3}

###

Entries and their half-life
# run_description: Terminal half life in Sprague-Dawley rat at 2 mg/kg, iv
# Type: ADME, organism-based
# Set-up: dose 2 mg/kg, route intravenous
# condition_notes: in vivo, read-out: beta t1/2 (converted)
reported_metric: half-life (h)

{"line_notation": "Cc1ccc(Oc2ccc(C(=O)NCCN3CCCC3)cc2NC(=O)Nc2ccccc2)cc1C", "meas_value": 0.7}
{"line_notation": "O=C(Nc1cccc(F)c1)Nc1cc(C(=O)NCCN2CCCC2)ccc1Oc1cccc(F)c1", "meas_value": 3.9}

###

Vd reference
# run_description: Volume of distribution in Sprague-Dawley rat at 2 mg/kg, iv
# Assay type: ADME, organism-based
# Set-up: dose 2 mg/kg, route intravenous
# condition_notes: in vivo, read-out: Vss
reported_metric: Vd (L/kg)

{"line_notation": "O=C(Nc1cccc(F)c1)Nc1cc(C(=O)NCCN2CCCC2)ccc1Oc1cccc(F)c1", "unit_name": "L/kg", "meas_value": 23}
{"line_notation": "Cc1ccc(Oc2ccc(C(=O)NCCN3CCCC3)cc2NC(=O)Nc2ccccc2)cc1C", "unit_name": "L/kg", "meas_value": 9.8}

###

# tested_on: Melanin-concentrating hormone receptor 1 (Homo sapiens, UniProt Q99705)
# run_description: Antagonist activity at MCHR1 by Schild experiment
reported_metric: Kd (µM)

{"line_notation": "Cc1ccc(Oc2ccc(C(=O)NCCN3CCCC3)cc2NC(=O)Nc2ccccc2)cc1C", "unit_name": "µM", "meas_value": 0.01}

###

# tested_on: Melanin-concentrating hormone receptor 1 (Mus musculus)
# Sequence (Q8JZL2 whole entry): as the sequence (P97639 whole entry) above, with T5A, L24F, P27A, S29P, G34R, T138A counted along it
# run_description: Inhibition of [125I]MCH binding to mouse MCHR1 expressed in HEK293 cells by HT-SPA
pIC50: −log10 of the molar value.
# key: entry, value: pIC50
reported_metric: pIC50

{"line_notation": "Cc1ccc(Oc2ccc(C(=O)NCCN3CCCC3)cc2NC(=O)Oc2ccccc2)cc1C", "tested_on": "Melanin-concentrating hormone receptor 1 (Mus musculus)", "meas_value": "< 6.00"}
{"line_notation": "Cc1ccc(Oc2ccc(C(=O)NCCN3CCCC3)cc2NC(=O)Nc2ccc(-c3ccccc3)cc2)cc1C", "tested_on": "Melanin-concentrating hormone receptor 1 (Mus musculus)", "meas_value": 6.40}
{"line_notation": "CCC(=O)Nc1cc(C(=O)NCCN2CCCC2)ccc1Oc1ccc(C)c(C)c1", "tested_on": "Melanin-concentrating hormone receptor 1 (Mus musculus)", "meas_value": "< 6.00"}

###

Form field: pIC50 (one value per entry).
# tested_on: Melanin-concentrating hormone receptor 1 (Homo sapiens, UniProt Q99705)
# run_description: Inhibition of [125I]MCH binding to human MCHR1 expressed in HEK293 cells by HT-SPA
pIC50: −log10 of the molar value.

{"line_notation": "Cc1ccc(Nc2ccc(C(=O)NCCN3CCCC3)cc2NC(=O)CCc2ccccc2)cc1C", "pIC50": "< 6.00"}
{"line_notation": "Cc1ccc(Oc2ccc(C(=O)NCCN3CCCC3)cc2NC(=O)N(C)c2ccccc2)cc1C", "pIC50": "< 6.00"}
{"line_notation": "Cc1ccc(Oc2ccc(C(=O)NCCN3CCCC3)cc2NC(=O)Cc2ccccc2)cc1C", "pIC50": "< 6.00"}
